target: PI3Kδ (Homo sapiens, UniProt O00329); construct: made in house; assay: Enzymatic activity of PI3K isoforms, TR-FRET assay (PIP3 formation); type: biochemical; conditions: PI3Kδ; TR-FRET, 2×Km ATP, 10 μM PIP2; read-out: IC50
Sequence (O00329 whole entry, canonical isoform): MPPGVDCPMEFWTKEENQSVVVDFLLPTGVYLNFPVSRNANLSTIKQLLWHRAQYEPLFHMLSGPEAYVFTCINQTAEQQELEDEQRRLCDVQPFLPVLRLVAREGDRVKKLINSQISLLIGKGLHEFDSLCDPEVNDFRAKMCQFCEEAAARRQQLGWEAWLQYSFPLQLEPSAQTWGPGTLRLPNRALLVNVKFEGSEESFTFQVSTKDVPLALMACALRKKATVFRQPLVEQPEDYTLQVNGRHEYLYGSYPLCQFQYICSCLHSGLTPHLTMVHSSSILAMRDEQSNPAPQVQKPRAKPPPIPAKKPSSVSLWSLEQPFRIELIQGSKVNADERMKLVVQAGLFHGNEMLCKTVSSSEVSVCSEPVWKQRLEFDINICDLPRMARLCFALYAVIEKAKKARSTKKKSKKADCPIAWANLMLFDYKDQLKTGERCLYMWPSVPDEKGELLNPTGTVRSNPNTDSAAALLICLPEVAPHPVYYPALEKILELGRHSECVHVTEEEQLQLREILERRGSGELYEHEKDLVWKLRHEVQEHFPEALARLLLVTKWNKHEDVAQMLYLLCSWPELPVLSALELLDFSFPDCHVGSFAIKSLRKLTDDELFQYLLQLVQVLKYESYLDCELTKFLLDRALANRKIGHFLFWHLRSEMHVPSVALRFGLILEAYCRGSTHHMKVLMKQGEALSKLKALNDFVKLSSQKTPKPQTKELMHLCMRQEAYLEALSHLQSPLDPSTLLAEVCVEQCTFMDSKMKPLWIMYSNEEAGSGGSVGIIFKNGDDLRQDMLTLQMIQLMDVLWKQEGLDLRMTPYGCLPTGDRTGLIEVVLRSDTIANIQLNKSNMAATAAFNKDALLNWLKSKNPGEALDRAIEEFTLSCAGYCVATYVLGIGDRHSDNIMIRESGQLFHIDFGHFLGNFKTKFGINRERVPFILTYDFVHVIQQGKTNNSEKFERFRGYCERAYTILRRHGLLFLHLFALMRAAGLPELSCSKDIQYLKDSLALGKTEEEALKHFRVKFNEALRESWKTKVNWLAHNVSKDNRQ
Sequence (P27986 whole entry partner, canonical isoform): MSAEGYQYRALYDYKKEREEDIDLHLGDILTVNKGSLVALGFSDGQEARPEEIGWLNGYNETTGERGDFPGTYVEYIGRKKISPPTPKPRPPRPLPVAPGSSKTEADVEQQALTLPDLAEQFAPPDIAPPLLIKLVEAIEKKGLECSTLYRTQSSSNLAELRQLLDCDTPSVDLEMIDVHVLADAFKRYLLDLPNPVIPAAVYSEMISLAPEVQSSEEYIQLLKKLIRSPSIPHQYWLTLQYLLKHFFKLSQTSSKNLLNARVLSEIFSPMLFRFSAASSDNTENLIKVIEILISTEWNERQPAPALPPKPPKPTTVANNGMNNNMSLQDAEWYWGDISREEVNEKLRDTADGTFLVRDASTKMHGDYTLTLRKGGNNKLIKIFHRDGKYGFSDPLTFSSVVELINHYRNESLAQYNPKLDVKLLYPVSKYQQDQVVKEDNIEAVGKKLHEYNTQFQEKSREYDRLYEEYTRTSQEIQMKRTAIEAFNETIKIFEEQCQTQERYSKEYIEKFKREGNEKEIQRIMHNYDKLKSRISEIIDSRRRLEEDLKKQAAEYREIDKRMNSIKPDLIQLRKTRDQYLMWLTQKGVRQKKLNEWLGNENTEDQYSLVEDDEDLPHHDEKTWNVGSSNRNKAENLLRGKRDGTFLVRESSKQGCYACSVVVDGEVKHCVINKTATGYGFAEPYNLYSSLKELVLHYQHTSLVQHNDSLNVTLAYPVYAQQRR
pIC50: −log10 of the molar value.
Readout Label: pIC50

Example entries begin here.
Cc1c(F)ccc(-n2c(C(C)Nc3nc(N)nc(N)c3C#N)nc3cccc(Cl)c3c2=O)c1C (single isomer, unassigned) [Compound 203a-2] :: < 7.30
Cc1ccc(F)c2c(=O)n(-c3cccc(C#N)c3)c(C(C)Nc3nc(N)nc(N)c3C#N)nc12 (single isomer, unassigned) [Compound 82a] :: 7.30 to 8.00
CC(Nc1nc(N)nc(N)c1Cl)c1nc2cccc(S(C)(=O)=O)c2c(=O)n1-c1cccc(F)c1 (single isomer, unassigned) [Compound 153a] :: 8.00 to 9.00

Lab request: please report pIC50 under test system PI3Kδ (Homo sapiens, UniProt O00329) for CC(Nc1nc(N)nc(N)c1C#N)c1nc2c(F)cccc2c(=O)n1-c1cc(F)cc(F)c1 (single isomer, unassigned) [Compound 16a]
8.00 to 9.00

Next entry: CC(Nc1nc(N)nc(N)c1C#N)c1nc2cccc(Cl)c2c(=O)n1-c1cc(F)cc(Cl)c1 (single isomer, unassigned) [Compound 43a]
8.00 to 9.00

Next entry: CC(Nc1nc(N)nc(N)c1C#N)c1nc2c(C#N)cc(F)cc2c(=O)n1-c1ccccc1 (single isomer, unassigned) [Compound 155a]
8.00 to 9.00
